biological target: Biotinylated recombinant human CD3εδ (Acro Biosystems, CDD-H82W6) (human) (UniProt P07766); experiment: Octet BLI, biotinylated CD3εδ on streptavidin sensors, 1:1 model
Sequence (P07766 23-126, stated change not applied, chain 1 of 2): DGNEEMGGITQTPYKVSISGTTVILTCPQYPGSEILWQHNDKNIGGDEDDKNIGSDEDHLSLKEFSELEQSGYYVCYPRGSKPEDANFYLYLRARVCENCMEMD
Sequence (P04234 22-105, stated change not applied, chain 2 of 2, further chain): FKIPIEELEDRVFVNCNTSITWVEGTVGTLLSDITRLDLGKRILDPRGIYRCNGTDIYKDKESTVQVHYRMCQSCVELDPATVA
Quantity kind: kon

| Binder | Measured value |
| --- | --- |
| EGFR-CD3 DuetMab with anti-CD3 variant AZ Vκ 17 + AZ VH SN79 (bispecific antibody, part only; not given: anti-EGFR arm, constant regions, V domains shown, not shown: another chain or arm of the molecule; a dimerising Fc or GST; small tags and cut ends) VH: EVQLVESGGALVKPGGSLRLSCAASGFTFSNAWMHWVRQAPGKQLEWVAQIKDRSQTYATYYAESVKGRFTISRDDSKNTLYLQMNSLKTEDTAVYYCRGVYYAVTPFDYWGQGTLVTVSS VL: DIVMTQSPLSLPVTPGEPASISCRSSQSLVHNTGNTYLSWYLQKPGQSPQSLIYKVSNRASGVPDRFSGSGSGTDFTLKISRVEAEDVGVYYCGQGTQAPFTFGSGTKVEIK | 15600 M⁻¹ s⁻¹ |
| EGFR-CD3 DuetMab with anti-CD3 variant AZ Vκ 17 + AZ VH SN82 (bispecific antibody, part only; not given: anti-EGFR arm, constant regions, V domains shown, not shown: another chain or arm of the molecule; a dimerising Fc or GST; small tags and cut ends) VH: EVQLVESGGALVKPGGSLRLSCAASGFTFSNAWMHWVRQAPGKQLEWVAQIKDRSQTYATYYAESVKGRFTISRDDSKNTLYLQMNSLKTEDTAVYYCRGVYYANTPFDYWGQGTLVTVSS VL: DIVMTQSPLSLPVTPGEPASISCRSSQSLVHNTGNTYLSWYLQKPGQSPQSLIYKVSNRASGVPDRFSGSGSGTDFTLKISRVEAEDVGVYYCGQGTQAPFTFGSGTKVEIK | 9100 M⁻¹ s⁻¹ |
| EGFR-CD3 DuetMab with anti-CD3 variant AZ Vκ 17 + AZ VH R79 (bispecific antibody, part only; not given: anti-EGFR arm, constant regions, V domains shown, not shown: another chain or arm of the molecule; a dimerising Fc or GST; small tags and cut ends) VH: EVQLVESGGALVKPGGSLRLSCAASGFTFTRAWMHWVRQAPGKQLEWVAQIKDRSQTYATYYAESVKGRFTISRDDSKNTLYLQMNSLKTEDTAVYYCRGVYYAVTPFDYWGQGTLVTVSS VL: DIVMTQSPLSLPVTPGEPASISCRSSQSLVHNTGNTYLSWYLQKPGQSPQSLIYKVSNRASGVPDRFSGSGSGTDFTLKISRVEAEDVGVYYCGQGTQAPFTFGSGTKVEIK | 24600 M⁻¹ s⁻¹ |
| EGFR-CD3 DuetMab with anti-CD3 variant AZ Vκ 26 + AZ VH R82 (bispecific antibody, part only; not given: anti-EGFR arm, constant regions, V domains shown, not shown: another chain or arm of the molecule; a dimerising Fc or GST; small tags and cut ends) VH: EVQLVESGGALVKPGGSLRLSCAASGFTFTRAWMHWVRQAPGKQLEWVAQIKDRSQTYATYYAESVKGRFTISRDDSKNTLYLQMNSLKTEDTAVYYCRGVYYANTPFDYWGQGTLVTVSS VL: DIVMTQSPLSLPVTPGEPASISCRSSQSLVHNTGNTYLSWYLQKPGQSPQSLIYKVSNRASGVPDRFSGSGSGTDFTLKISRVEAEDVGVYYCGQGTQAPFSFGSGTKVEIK | 17300 M⁻¹ s⁻¹ |
| EGFR-CD3 DuetMab with anti-CD3 variant AZ Vκ 26 + AZ VH SN82 (bispecific antibody, part only; not given: anti-EGFR arm, constant regions, V domains shown, not shown: another chain or arm of the molecule; a dimerising Fc or GST; small tags and cut ends) VH: EVQLVESGGALVKPGGSLRLSCAASGFTFSNAWMHWVRQAPGKQLEWVAQIKDRSQTYATYYAESVKGRFTISRDDSKNTLYLQMNSLKTEDTAVYYCRGVYYANTPFDYWGQGTLVTVSS VL: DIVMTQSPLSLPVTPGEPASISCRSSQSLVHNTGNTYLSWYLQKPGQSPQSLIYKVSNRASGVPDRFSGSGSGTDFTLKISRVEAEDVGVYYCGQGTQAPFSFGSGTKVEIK | 12400 M⁻¹ s⁻¹ |
| EGFR-CD3 DuetMab with anti-CD3 variant AZ Vκ 26 + AZ VH SN75 (bispecific antibody, part only; not given: anti-EGFR arm, constant regions, V domains shown, not shown: another chain or arm of the molecule; a dimerising Fc or GST; small tags and cut ends) VH: EVQLVESGGALVKPGGSLRLSCAASGFTFSNAWMHWVRQAPGKQLEWVAQIKDRSQTYATYYAESVKGRFTISRDDSKNTLYLQMNSLKTEDTAVYYCRGVYYANAPFDYWGQGTLVTVSS VL: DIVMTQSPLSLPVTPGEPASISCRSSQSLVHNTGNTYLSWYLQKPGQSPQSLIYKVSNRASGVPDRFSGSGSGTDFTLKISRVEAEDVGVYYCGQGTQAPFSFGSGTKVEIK | 16300 M⁻¹ s⁻¹ |
| EGFR-CD3 DuetMab with anti-CD3 variant AZ Vκ 17 + AZ VH E82 (bispecific antibody, part only; not given: anti-EGFR arm, constant regions, V domains shown, not shown: another chain or arm of the molecule; a dimerising Fc or GST; small tags and cut ends) VH: EVQLVESGGALVKPGGSLRLSCAASGFTFTEAWMHWVRQAPGKQLEWVAQIKDRSQTYATYYAESVKGRFTISRDDSKNTLYLQMNSLKTEDTAVYYCRGVYYANTPFDYWGQGTLVTVSS VL: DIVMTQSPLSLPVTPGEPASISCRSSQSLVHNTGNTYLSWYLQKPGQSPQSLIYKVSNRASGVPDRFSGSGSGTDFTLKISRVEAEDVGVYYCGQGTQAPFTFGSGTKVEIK | 7140 M⁻¹ s⁻¹ |
